assay: self-splicing fitness, log relative to wild type (ln ratio); higher = more splicing; Tetrahymena group I intron in knt gene, E. coli kanamycin selection, DiMSum; sequences stand for … in CUCUCU…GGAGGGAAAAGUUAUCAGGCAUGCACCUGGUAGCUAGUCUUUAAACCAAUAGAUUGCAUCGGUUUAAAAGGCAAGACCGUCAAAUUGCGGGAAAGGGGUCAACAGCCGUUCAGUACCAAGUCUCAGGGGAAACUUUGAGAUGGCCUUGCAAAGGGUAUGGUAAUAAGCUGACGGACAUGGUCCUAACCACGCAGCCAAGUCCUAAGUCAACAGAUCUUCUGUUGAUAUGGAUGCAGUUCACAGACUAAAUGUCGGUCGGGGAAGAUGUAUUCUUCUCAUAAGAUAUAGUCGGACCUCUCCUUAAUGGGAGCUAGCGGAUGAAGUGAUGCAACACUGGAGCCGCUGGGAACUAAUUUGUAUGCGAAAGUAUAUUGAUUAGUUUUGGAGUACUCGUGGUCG; conditions: 37 °C;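 also: selection with 25 µg/mL kanamycin versus none on LB agar overnight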
As shown below, each of these sequences has a reported self-splicing fitness (ln) value.

- biosequence: "AGCGAGCAAUAUUACGCUUG"
  self-splicing fitness (ln): -1.69
- biosequence: "UGGAAGCAAUAUUACGUGAA"
  self-splicing fitness (ln): -1.65
- biosequence: "CAUCAGCAAUAUUACGACCA"
  self-splicing fitness (ln): -1.1
- biosequence: "AUAAAGCAAUAUUACGCGCG"
  self-splicing fitness (ln): 0.713
- biosequence: "AGACAGCAAUAUUACGAUGU"
  self-splicing fitness (ln): -0.886
- biosequence: "AACCAGCAAUAUUACGCCUA"
  self-splicing fitness (ln): -0.557
- biosequence: "GGGCAGCAAUAUUACGAACA"
  self-splicing fitness (ln): -0.607
- biosequence: "GUAAAGCAAUAUUACGUCCU"
  self-splicing fitness (ln): 0.663
- biosequence: "UGUCAGCAAUAUUACGAGAC"
  self-splicing fitness (ln): -2.91
- biosequence: "CGAUAGCAAUAUUACGCUUU"
  self-splicing fitness (ln): -3.14
- biosequence: "AGCCAGCAAUAUUACGUUUG"
  self-splicing fitness (ln): -3.22
- biosequence: "GCAAAGCAAUAUUACGACUU"
  self-splicing fitness (ln): -0.0895
- biosequence: "AACUAGCAAUAUUACGAGAU"
  self-splicing fitness (ln): -1.65
- biosequence: "GCGUAGCAAUAUUACGGUGU"
  self-splicing fitness (ln): -1.48
- biosequence: "GUGAAGCAAUAUUACGAUUU"
  self-splicing fitness (ln): 0.316
- biosequence: "AUUGAGCAAUAUUACGUUCG"
  self-splicing fitness (ln): -1.14
